Test: Acute toxicity in ip dosed mouse assessed as mortality measured for 24 hrs
Format: organism-based
Conditions: in vivo
The entries below come with measured LD50 at 24 h values attached.
Endpoint Label: LD50 at 24 h

Cc1ccc(-c2nn(-c3ccc(S(N)(=O)=O)cc3)cc2-c2cc(-c3ccc(Cl)cc3)[nH]c2-c2ccc(F)cc2)cc1 | 3250 µmol/kg
COc1ccc(/N=C\c2cn(-c3ccc(Cl)cc3)nc2-c2ccc(OC)cc2)cc1 | 3250 µmol/kg
COc1ccc(-c2nn(-c3ccc(S(N)(=O)=O)cc3)cc2/C=N\c2ccc(Cl)cc2)cc1 | 2440 µmol/kg
COc1ccc(/N=C\c2cn(-c3ccc(S(N)(=O)=O)cc3)nc2-c2ccc(OC)cc2)cc1 | 3250 µmol/kg

----------
Tested on: Rattus norvegicus
Assay: Antiinflammatory activity in Wistar albino rat assessed as inhibition of carrageenan-induced paw edema at 0.32 mmol/kg, ip administered 1 hr prior to carrageenan challenge measured at 2 hrs by plethysmometric analysis relative to control
Assay type: functional
Cut-off 60% on inhibition in vivo at 320 µmol/kg, inclusive. At or above means met; below means not met.

COc1ccc(C(=O)C(CC(=O)c2ccc(Cl)cc2)c2cn(-c3ccc(Cl)cc3)nc2-c2ccc(C)cc2)cc1 (configuration not stated) | not met
Cc1ccc(-c2nn(-c3ccc(S(N)(=O)=O)cc3)cc2/C=N\c2ccc(Cl)cc2)cc1 | met
COc1ccc(C(=O)C(CC(=O)c2ccc(Cl)cc2)c2cn(-c3ccc(S(N)(=O)=O)cc3)nc2-c2ccc(OC)cc2)cc1 (configuration not stated) | not met
COc1ccc(-c2nn(-c3ccc(Cl)cc3)cc2/C=C\C(=O)c2ccc(Cl)cc2)cc1 | not met
COc1ccc(/N=C\c2cn(-c3ccc(Cl)cc3)nc2-c2ccc(OC)cc2)cc1 | met
Cc1ccc(-c2nn(-c3ccc(Cl)cc3)cc2/C=C\C(=O)c2ccc(Cl)cc2)cc1 | not met
Cc1ccc(-c2nn(-c3ccc(S(N)(=O)=O)cc3)cc2-c2cc(-c3ccc(Cl)cc3)[nH]c2-c2ccc(F)cc2)cc1 | met
COc1ccc(-c2nn(-c3ccc(S(N)(=O)=O)cc3)cc2-c2cc(-c3ccc(Cl)cc3)[nH]c2-c2ccc(OC)cc2)cc1 | not met
Cc1ccc(-c2nn(-c3ccc(Cl)cc3)cc2C(CC(=O)c2ccc(Cl)cc2)C(=O)c2ccc(F)cc2)cc1 (configuration not stated) | not met
COc1ccc(-c2[nH]c(-c3ccc(Cl)cc3)cc2-c2cn(-c3ccc(Cl)cc3)nc2-c2ccc(C)cc2)cc1 | not met
Cc1ccc(-c2nn(-c3ccc(Cl)cc3)cc2-c2cc(-c3ccc(Cl)cc3)[nH]c2-c2ccc(F)cc2)cc1 | not met
COc1ccc(/N=C\c2cn(-c3ccc(Cl)cc3)nc2-c2ccc(C)cc2)cc1 | met
Cc1ccc(-c2nn(-c3ccc(Cl)cc3)cc2/C=N\c2ccc(Cl)cc2)cc1 | not met
COc1ccc(-c2nn(-c3ccc(S(N)(=O)=O)cc3)cc2C=O)cc1 | met
COc1ccc(-c2nn(-c3ccc(S(N)(=O)=O)cc3)cc2/C=N\c2ccccc2)cc1 | not met
COc1ccc(-c2nn(-c3ccc(S(N)(=O)=O)cc3)cc2C(CC(=O)c2ccc(Cl)cc2)C(=O)c2ccc(F)cc2)cc1 (configuration not stated) | met

----------
System: Mus musculus
Assay: Analgesic activity in albino mouse assessed as protection against p-benzoquinone-induced writhing at 0.32 mmol/kg, ip administered 1 hr prior to p-benzoquinone challenge measured for 30 mins relative to control
Assay type: functional
Endpoint Label: Activity (%)

COc1ccc(/N=C\c2cn(-c3ccc(Cl)cc3)nc2-c2ccc(C)cc2)cc1 | 16.67
COc1ccc(C(=O)C(CC(=O)c2ccc(Cl)cc2)c2cn(-c3ccc(S(N)(=O)=O)cc3)nc2-c2ccc(C)cc2)cc1 (stereo not drawn) | 50
Cc1ccc(-c2nn(-c3ccc(Cl)cc3)cc2-c2cc(-c3ccc(Cl)cc3)[nH]c2-c2ccc(F)cc2)cc1 | 33.33
Cc1ccc(-c2nn(-c3ccc(S(N)(=O)=O)cc3)cc2-c2cc(-c3ccc(Cl)cc3)[nH]c2-c2ccc(F)cc2)cc1 | 16.67
COc1ccc(-c2nn(-c3ccc(Cl)cc3)cc2-c2cc(-c3ccc(Cl)cc3)[nH]c2-c2ccc(F)cc2)cc1 | 33.33
COc1ccc(-c2nn(-c3ccc(Cl)cc3)cc2C=O)cc1 | 33.33
COc1ccc(-c2nn(-c3ccc(S(N)(=O)=O)cc3)cc2C=O)cc1 | 16.67
COc1ccc(/N=C\c2cn(-c3ccc(Cl)cc3)nc2-c2ccc(OC)cc2)cc1 | 66.67
CCCCC1C(=O)N(c2ccccc2)N(c2ccccc2)C1=O | 33.33
Cc1ccc(-c2nn(-c3ccc(S(N)(=O)=O)cc3)cc2C(CC(=O)c2ccc(Cl)cc2)C(=O)c2ccc(F)cc2)cc1 (stereo not drawn) | 50
Cc1ccc(-c2nn(-c3ccc(S(N)(=O)=O)cc3)cc2/C=N\c2ccc(Cl)cc2)cc1 | 33.33
COc1ccc(-c2nn(-c3ccc(S(N)(=O)=O)cc3)cc2/C=N\c2ccc(Cl)cc2)cc1 | 50
COc1ccc(-c2nn(-c3ccc(S(N)(=O)=O)cc3)cc2C(CC(=O)c2ccc(Cl)cc2)C(=O)c2ccc(F)cc2)cc1 (stereo not drawn) | 33.33
COc1ccc(-c2[nH]c(-c3ccc(Cl)cc3)cc2-c2cn(-c3ccc(S(N)(=O)=O)cc3)nc2-c2ccc(C)cc2)cc1 | 50
COc1ccc(/N=C\c2cn(-c3ccc(S(N)(=O)=O)cc3)nc2-c2ccc(OC)cc2)cc1 | 33.33
Cc1ccc(-c2nn(-c3ccc(S(N)(=O)=O)cc3)cc2C=O)cc1 | 16.67
COc1ccc(-c2nn(-c3ccc(Cl)cc3)cc2/C=N\c2ccc(Cl)cc2)cc1 | 33.33
COc1ccc(-c2nn(-c3ccc(Cl)cc3)cc2/C=N\c2ccccc2)cc1 | 16.67

----------
Organism: Homo sapiens
Assay: Selectivity ratio for COX1 (unknown origin) over COX2 (unknown origin)
Let's look at some compounds and their measured Selectivity ratio.
Endpoint Label: Selectivity ratio

COc1ccc(/N=C\c2cn(-c3ccc(Cl)cc3)nc2-c2ccc(OC)cc2)cc1 | 1.17
Cc1ccc(-c2nn(-c3ccc(S(N)(=O)=O)cc3)cc2-c2cc(-c3ccc(Cl)cc3)[nH]c2-c2ccc(F)cc2)cc1 | 0.87
COc1ccc2c(c1)c(CC(=O)O)c(C)n2C(=O)c1ccc(Cl)cc1 | 3.94
COc1ccc(-c2nn(-c3ccc(Cl)cc3)cc2/C=N\c2ccc(Cl)cc2)cc1 | 0.95
